The reported numbers originate from patent US5516797A.

Assay read-out pKd; system under study: FK-506 binding protein (FKBP) (Homo sapiens).
Entry type: numeric. Quantity: pKd, the -log10 of concentration in molar units.

[[record]]
chem_smiles = "O=C(C(=O)N1CCCC[C@H]1C(=O)OCc1ccccc1)c1ccc(F)cc1"
result_value = 5.00

[[record]]
chem_smiles = "COc1cccc(C(=O)C(=O)N2CCC[C@H]2C(=O)OCc2ccccc2)c1"
result_value = 4.10

[[record]]
chem_smiles = "O=C(C(=O)N1CCCC[C@H]1C(=O)Oc1ccc2ccccc2c1)c1ccccc1"
result_value = 6.00


Incoming: Lab note: need pKd for COc1cccc(OC)c1C(=O)C(=O)N1CCCC[C@H]1C(=O)OCc1ccccc1 on FK-506 binding protein (FKBP) (Homo sapiens), anyone have it?
Outgoing: 4.60

Incoming: Could you share what pKd was measured for COc1ccc(C=CCCOC(=O)[C@@H]2CCCCN2C(=O)C(=O)c2cc(OC)c(OC)c(OC)c2)cc1 , tested on FK-506 binding protein (FKBP) (Homo sapiens)?
Outgoing: 6.22

* * *

pIC50 reference
System: PBLs stimulated with JVM human viral transformed B lymphoblastoid cells
experiment.summary: MLR bioassay JVM: inhibition of proliferation in mixed lymphocyte reaction
Format: cell-based
conditions.used: Lymphoblastoid cell, pulsed on day 6, harvested 24 h later
pIC50: −log10 of the molar value.

Would you please look over these solved cases?
[[record]]
chem_smiles = "O=C(C(=O)N1CCCC[C@H]1C(=O)OCCCCc1ccccc1)c1ccccc1"
target_or_test_system = "PBLs stimulated with JVM human viral transformed B lymphoblastoid cells"
result_value = "< 5.00"

[[record]]
chem_smiles = "COc1ccc(CCCCOC(=O)[C@@H]2CCCCN2C(=O)C(=O)c2cc(OC)c(OC)c(OC)c2)cc1"
target_or_test_system = "PBLs stimulated with JVM human viral transformed B lymphoblastoid cells"
result_value = 5.00

[[record]]
chem_smiles = "COc1cc(C(=O)C(=O)N2CCCC[C@H]2C(=O)OCc2ccc(I)cc2)cc(OC)c1OC"
target_or_test_system = "PBLs stimulated with JVM human viral transformed B lymphoblastoid cells"
result_value = "< 5.00"

[[record]]
chem_smiles = "C/C(=C\\[C@H]1CC[C@H](O)CC1)COC(=O)[C@@H]1CCCCN1C(=O)C(=O)c1ccccc1"
target_or_test_system = "PBLs stimulated with JVM human viral transformed B lymphoblastoid cells"
result_value = "< 5.00"


Incoming: Given the entry O=C(C(=O)N1CCCC[C@H]1C(=O)OCCCCc1ccccc1)c1cccc(I)c1 , report its measured pIC50.
Outgoing: < 5.00

Incoming: What value of pIC50 has been recorded for this entry: O=C(C(=O)N1CCCC[C@H]1C(=O)OCc1ccccc1)c1cccc(OCc2ccccc2)c1
Outgoing: < 5.00

Incoming: Reported pIC50 for COc1cc(C(=O)C(=O)N2CCCC[C@H]2C(=O)OCCCc2cn(C=O)c3ccccc23)cc(OC)c1OC : what is it?
Outgoing: 5.06

Incoming: So what's the measured pIC50 for this one? O=C(Cc1ccccc1)C(=O)N1CCCC[C@H]1C(=O)OCCCCc1ccccc1
Outgoing: < 5.00

* * *

target.or.test.system: FK-506 binding protein (FKBP) (Homo sapiens, UniProt P62942)
Sequence (P62942 whole entry): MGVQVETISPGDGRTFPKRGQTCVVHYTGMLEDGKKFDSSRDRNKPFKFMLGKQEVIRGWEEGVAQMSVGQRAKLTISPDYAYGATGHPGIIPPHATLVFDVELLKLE
experiment.summary: Inhibition of PPIase (rotamase) enzyme activity of FKBP (apparent Ki)
Format: biochemical
conditions.used: substrate N-succinylAla-Ala-Pro-Phe-p-nitroanilide, chymotrypsin-coupled
Recorded Ki for the following compounds
State just the number; it will be interpreted in µM.

Field: example entries. Status: answers known.
[[record]]
chem_smiles = "COC(=O)C(=O)N(C)CC(=O)OCc1ccccc1"
parameter = "Ki"
reading_unit = "µM"
result_value = 1000

[[record]]
chem_smiles = "O=C(OCc1ccccc1)[C@@H]1CCCCN1C(=O)/C=C/c1ccc([N+](=O)[O-])cc1"
parameter = "Ki"
reading_unit = "µM"
result_value = 14

[[record]]
chem_smiles = "COc1cc(C(=O)C(=O)N2CCCC[C@H]2C(=O)OCc2ccc(-c3ccccc3)cc2)cc(OC)c1OC"
parameter = "Ki"
reading_unit = "µM"
result_value = 2

[[record]]
chem_smiles = "COc1cc(C(=O)C(=O)N2CCCC[C@H]2C(=O)OCCCCCC2CCCCC2)cc(OC)c1OC"
parameter = "Ki"
reading_unit = "µM"
result_value = 0.09

[[record]]
chem_smiles = "COc1ccc(C=CCCOC(=O)[C@@H]2CCCCN2C(=O)C(=O)c2cc(OC)c(OC)c(OC)c2)cc1"
parameter = "Ki"
reading_unit = "µM"
result_value = 0.011

[[record]]
chem_smiles = "O=C(C(=O)N1CCCC[C@H]1C(=O)OCc1ccccc1)c1cccc2ccccc12"
parameter = "Ki"
reading_unit = "µM"
result_value = 1

[[record]]
chem_smiles = "C[C@@H](C(=O)OCc1ccccc1)N(C)C(=O)/C=C/c1ccc2c(c1)OCO2"
parameter = "Ki"
reading_unit = "µM"
result_value = 50

[[record]]
chem_smiles = "COc1cc(C(=O)C(=O)N2CCCC[C@H]2C(=O)OCc2ccc(Oc3ccccc3)cc2)cc(OC)c1OC"
parameter = "Ki"
reading_unit = "µM"
result_value = 0.8

[[record]]
chem_smiles = "COc1cc(C(=O)C(=O)N2CCCC[C@H]2C(=O)OCc2ccccc2)cc(OC)c1OC"
parameter = "Ki"
reading_unit = "µM"
result_value = 0.1

[[record]]
chem_smiles = "O=C(OCc1ccccc1)[C@@H]1CCCCN1C(=O)/C=C/c1ccco1"
parameter = "Ki"
reading_unit = "µM"
result_value = 2.5


Incoming: Sample O=C(OCc1ccccc1)[C@@H]1CCCCN1C(=O)/C=C/c1ccc2c(c1)OCO2 — what was its Ki?
Outgoing: 3

Incoming: What value of Ki has been recorded for this entry: COc1ccc(/C=C/C(=O)N(C)[C@H](C(=O)OCc2ccccc2)C(C)C)cc1
Outgoing: 30

Incoming: Return reported Ki; argument: O=C(C(=O)N1CCCC[C@H]1C(=O)OCCCCc1ccccc1)c1ccc(I)cc1
Outgoing: 0.8

Incoming: Reported Ki for C/C(=C\c1ccc(O)cc1)COC(=O)[C@@H]1CCCCN1C(=O)C(=O)c1ccccc1 : what is it?
Outgoing: 6

Incoming: Which Ki value belongs to COC(=O)C(=O)N1CCCC[C@H]1C(=O)OC/C(C)=C/c1ccc(OC)c(OC)c1 ?
Outgoing: 10

Incoming: Look up Ki: O=C(C(=O)N1CCCC[C@H]1C(=O)OCCCCc1ccccc1)c1ccc2c(c1)OCO2
Outgoing: 0.25

Incoming: So what's the measured Ki for this one? O=C(C(=O)N1CCCC[C@H]1C(=O)OCCCCc1ccccc1)c1cccc(I)c1
Outgoing: 0.13

Incoming: Which Ki is reported for this compound? O=C(OCc1ccccc1)[C@@H]1CCCCN1C(=O)/C=C/c1ccoc1
Outgoing: 2.5

Incoming: Request the reported Ki associated with O=C(C(=O)N1CCCC[C@H]1C(=O)OCc1ccccc1)c1ccc([N+](=O)[O-])cc1
Outgoing: 160

Incoming: Name the reported Ki value associated with the compound O=C(C(=O)N1CCCC[C@H]1C(=O)OCc1ccccc1)c1ccc(F)cc1
Outgoing: 4

Incoming: Which Ki is listed for COc1cc(C(=O)C(=O)N2CCCC[C@H]2C(=O)OCc2ccc(I)cc2)cc(OC)c1OC ?
Outgoing: 1.4

Incoming: State the recorded Ki for this entry: O=C(C(=O)N1CCCC[C@H]1C(=O)OCc1ccccc1)c1cccs1
Outgoing: 0.8

* * *

Tested on: PBLs stimulated with JVM human viral transformed B lymphoblastoid cells
experiment.summary: MLR bioassay JVM: inhibition of proliferation in mixed lymphocyte reaction
Type: cell-based
conditions.used: Lymphoblastoid cell, pulsed on day 6, harvested 24 h later
parameter: IC50

Recorded results for 7 compounds are shown here.
[[record]]
compound = "COc1cc(C(=O)C(=O)N2CCCC[C@H]2C(=O)OCCCc2ccccc2)cc(OC)c1OC [Compound 83]"
result_value = "7.5 µM"

[[record]]
compound = "COc1cc(C(=O)C(=O)N2CCCC[C@H]2C(=O)OCCc2cccc3ccccc23)cc(OC)c1OC [Compound 80]"
result_value = "10 µM"

[[record]]
compound = "C/C(=C\\c1ccccc1)COC(=O)[C@@H]1CCCCN1C(=O)C(=O)c1ccccc1 [Compound 23]"
result_value = "> 10 µM"

[[record]]
compound = "COc1cc(C(=O)C(=O)N2CCCC[C@H]2C(=O)OCc2ccc(Oc3ccccc3)cc2)cc(OC)c1OC [Compound 73]"
result_value = "6 µM"

[[record]]
compound = "O=C(CC1CCCCC1)C(=O)N1CCCC[C@H]1C(=O)OCCCCc1ccccc1 [Compound 99]"
result_value = "> 10 µM"

[[record]]
compound = "COc1ccc(C(=O)C(=O)N2CCCC[C@H]2C(=O)OCCCCc2ccccc2)cc1C1CCCCC1 [Compound 102]"
result_value = "10 µM"

[[record]]
compound = "COc1cc(C(=O)C(=O)N2CCCC[C@H]2C(=O)OCCCCCC2CCCCC2)cc(OC)c1OC [Compound 74]"
result_value = "10 µM"


Incoming: Please provide the recorded IC50 for CCC(=O)C(=O)N1CCCC[C@H]1C(=O)OCCCCc1ccccc1 [Compound 105] , tested on PBLs stimulated with JVM human viral transformed B lymphoblastoid cells.
Outgoing: > 10 µM
